Ref: patent US20240368104A1

# System: SARS-COV-2
# Assay text: microbe, parasite or virus in culture
# Format: cell-based
# Parameters: unit not given here
# Measurement parameters: SARS-COV-2; values >50 assumed to be 50
Where a name gives a salt, the structure may show the parent alone.
Readout type: SI (Selectivity Index, CC50/IC50)
Numbers only.

Worked examples follow.
- Molecule: "COc1cc2cc3c(c(-c4ccc5nccc(O)c5c4)c2cc1OC)C(=O)OC3"
  Observed value: 1.0
- Molecule: "COc1cc2cc3c(c(-c4ccnc(F)c4)c2cc1OC)C(=O)OC3"
  Observed value: 1.0
- Molecule: "COc1cc2cc3c(c(-c4cnc(NC5CC5)nc4)c2cc1OC)C(=O)OC3"
  Observed value: 1.00
- Molecule: "COc1cc2cc3c(c(-c4ccc(N(C)c5ccc(S)cc5)nc4)c2cc1OC)C(=O)OC3.Cl"
  Observed value: 1.00
- Molecule: "COc1cc2cc3c(c(-c4cnc(N5CCC(C)CC5)nc4)c2cc1OC)C(=O)OC3 [Example 107, hydrochloride]"
  Observed value: 35.49
- Molecule: "COc1cc2cc3c(c(N4CCN(c5ncc(Br)cn5)CC4)c2cc1OC)C(=O)OC3"
  Observed value: 1.44

Give SI (Selectivity Index, CC50/IC50) for all molecules that follow.
1. COc1cc2cc3c(c(-c4ccc(N(C)c5nn(C)cc5C#N)nc4)c2cc1OC)C(=O)OC3.Cl
2. COc1cc2cc3c(c(-c4cnc(Nc5ccc(C)c(C)c5)nc4)c2cc1OC)C(=O)OC3
3. COc1cc2cc3c(c(-c4cnc(N5CCC[C@H]5C(=O)O)nc4)c2cc1OC)C(=O)OC3
4. CCCCCCCCCCN(CCCCCCCCCC)c1ncc(-c2c3c(cc4cc(OC)c(OC)cc24)COC3=O)cn1.Cl
5. COCCN(C)c1ccc(-c2c3c(c(OC)c4cc(OC)c(OC)cc24)C(=O)OC3)cn1.Cl
6. COc1ccc2c(-c3c4c(cc5cc(OC)c(OC)cc35)COC4=O)cc(C)nc2c1
7. COc1cc2cc3c(c(-c4ccnc5c(F)cccc45)c2cc1OC)C(=O)OC3

Output:
1. 1.00
2. 3.31
3. 1.00
4. 1.00
5. 1.51
6. 2.07
7. 1.0

* * *

# Tested on: SARS-COV-2
# Assay text: microbe, parasite or virus in culture
# Format: cell-based
# Design: unit not given here
# Measurement parameters: SARS-COV-2; values >50 assumed to be 50
Where a name gives a salt, the structure may show the parent alone.
Tag: Yes if measured SI (Selectivity Index, CC50/IC50) is not below 4, No if it is.

A selection of reference data follows.
- Molecule: "COc1cc2cc3c(c(-c4ccc(N(C)CC5CC5)nc4)c2cc1OC)C(=O)OC3.Cl"
  Label class: "Yes"
- Molecule: "COc1cc2cc3c(c(-c4cnc(N(CCO)CCO)nc4)c2cc1OC)C(=O)OC3.Cl"
  Label class: "No"
- Molecule: "COc1cc2cc3c(c(-c4cnc(N5CCCCC5CO)nc4)c2cc1OC)C(=O)OC3 (stereo not shown) [Example 104, hydrochloride]"
  Label class: "No"
- Molecule: "COc1cc2cc3c(c(-c4ccc(N(C)c5ncn(C)n5)nc4)c2cc1OC)C(=O)OC3"
  Label class: "No"
- Molecule: "CCCCN(C)c1ccc(-c2c3c(c(OC)c4cc(OC)c(OC)cc24)C(=O)OC3)cn1.Cl"
  Label class: "Yes"
- Molecule: "COc1cc2cc3c(c(-c4cnc(N5CCCC(O)C5)nc4)c2cc1OC)C(=O)OC3.Cl (stereo not shown)"
  Label class: "Yes"
- Molecule: "COc1ncc(-c2c3c(cc4cc(OC)c(OC)cc24)COC3=O)cn1"
  Label class: "Yes"
- Molecule: "COc1cc2c(OC)c3c(c(-c4ccc(N5CCC6(CC5)OCCO6)nc4)c2cc1OC)COC3=O"
  Label class: "No"

Input: // inclusive: SI (Selectivity Index, CC50/IC50) at least 4? input: COc1cc2cc3c(c(-c4cnc(N(C)CCCN5CCOCC5)nc4)c2cc1OC)C(=O)OC3 [Example 112, dihydrochloride]
Output: Yes

Input: // inclusive: SI (Selectivity Index, CC50/IC50) at least 4? input: `CCNc1cccc(-c2c3c(cc4cc(OC)c(OC)cc24)COC3=O)c1`
Output: No

Input: // inclusive: SI (Selectivity Index, CC50/IC50) at least 4? input: `COCCN(C)c1ccc(-c2c3c(cc4cc(OC)c(OC)cc24)COC3=O)cc1`
Output: Yes

Input: // inclusive: SI (Selectivity Index, CC50/IC50) at least 4? input: `CCOP(=O)(OCC)Oc1cc2c(cc1-c1c3c(cc4cc(OC)c(OC)cc14)COC3=O)OCO2`
Output: No
